Assay: Hematology assays in cynomolgus monkeys (Example 45)
Assay type: in vivo
Details: day 78
endpointName: neutrophils (%)
Give just the number in %; leave the unit off.

Q: So what does the record say about neutrophils for ISIS 417002: MOE gapmer, nucleobases 1275 to 1318 of SEQ ID NO: 1 (Table 8) (antisense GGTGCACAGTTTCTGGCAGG; MOE gapmer, wing and gap sizes not given here) ?
Ans: 51

Q: # neutrophils lookup, item ISIS 416838: MOE gapmer, nucleobases 1018 to 1042 of SEQ ID NO: 1 (Table 6) (antisense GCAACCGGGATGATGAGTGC; MOE gapmer, wing and gap sizes not given here)
Ans: 35

Q: Which value of neutrophils has been reported for ISIS 416858: MOE gapmer, nucleobases 1275 to 1318 of SEQ ID NO: 1 (Table 8) (antisense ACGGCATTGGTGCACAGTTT; MOE gapmer, wing and gap sizes not given here) in the records?
Ans: 39
